- tested.on: D(2) dopamine receptor (Homo sapiens) (UniProt P14416)
- Sequence (P14416 whole entry): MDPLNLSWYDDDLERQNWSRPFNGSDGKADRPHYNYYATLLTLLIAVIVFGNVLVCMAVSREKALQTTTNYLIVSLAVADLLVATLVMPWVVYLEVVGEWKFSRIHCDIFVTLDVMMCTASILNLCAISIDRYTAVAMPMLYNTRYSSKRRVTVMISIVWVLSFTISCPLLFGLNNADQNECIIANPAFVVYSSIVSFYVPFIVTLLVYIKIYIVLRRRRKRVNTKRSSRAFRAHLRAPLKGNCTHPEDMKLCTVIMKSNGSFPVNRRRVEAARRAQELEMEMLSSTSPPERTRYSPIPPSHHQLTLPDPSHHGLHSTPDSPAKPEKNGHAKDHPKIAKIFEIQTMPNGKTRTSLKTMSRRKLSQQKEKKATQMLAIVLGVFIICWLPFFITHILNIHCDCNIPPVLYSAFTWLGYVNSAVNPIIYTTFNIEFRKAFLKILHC
- experiment: Displacement of [3H]7-OH-DPAT from human dopamine D2 receptor expressed in HEK293 cell membrane assessed as inhibition of radioligand binding at 100 nM incubated for 60 mins by competition binding based scintillation counter analysis relative to control
- Format: cell membranes
Active and inactive are the calls of the source. The calls are words filed in the database; no cut-off is given here.

| structure.notation | tested.on | inhibition |
| --- | --- | --- |
| O=C1CN2c3c(cccc3[C@@H]3CN(CCCO)CC[C@@H]32)N1 | D(2) dopamine receptor (Homo sapiens) (UniProt P14416) | inactive |
| NC(=O)c1cc(F)ccc1OCCCN1CC[C@H]2[C@@H](C1)c1cccc3c1N2CC(=O)N3 | D(2) dopamine receptor (Homo sapiens) (UniProt P14416) | inactive |
| Cc1cc(F)cc(C)c1OCCCN1CC[C@H]2[C@@H](C1)c1cccc3c1N2CC(=O)N3 | D(2) dopamine receptor (Homo sapiens) (UniProt P14416) | inactive |
| O=C1CN2c3c(cccc3[C@@H]3CN(CCCS(=O)(=O)c4ccc(F)cc4)CC[C@@H]32)N1 | D(2) dopamine receptor (Homo sapiens) (UniProt P14416) | inactive |
